System: Human betaherpesvirus 5
Assay: Antiviral activity against Human cytomegalovirus AD169 infected in HEL cells assessed as inhibition of virus-induced cytopathicity
Format: functional, organism-based
Settings: Human betaherpesvirus 5, AD169, HEL
pEC50: −log10 of the molar value.
Below, each of the compounds is paired with its reported pEC50 value.

| COMPOUND | pEC50 |
| --- | --- |
| C/C(=C/CP(=O)(N[C@@H](C)C(=O)OC(C)C)Oc1cccc2ccccc12)Cn1cc(C)c(=O)[nH]c1=O (stereo partly specified) | < 4.70 |
| C/C(=C\CP(=O)(N[C@@H](C)C(=O)OCc1ccccc1)Oc1cccc2ccccc12)Cn1cc(C)c(=O)[nH]c1=O (stereo partly specified) | < 4.00 |
| Nc1nc2c(ncn2COC(CO)CO)c(=O)[nH]1 | 4.94 |
| C/C(=C\CP(=O)(N[C@@H](C)C(=O)OC(C)C)Oc1cccc2c1CCCC2)Cn1cc(C)c(=O)[nH]c1=O (stereo partly specified) | < 4.00 |
| C/C(=C\CP(=O)(N[C@@H](C)C(=O)OCc1ccccc1)Oc1ccccc1)Cn1ccc(=O)[nH]c1=O (stereo partly specified) | < 4.00 |
| C/C(=C\CP(=O)(N[C@@H](C)C(=O)OCc1ccccc1)Oc1cccc2c1CCCC2)Cn1cc(C)c(=O)[nH]c1=O (stereo partly specified) | < 4.00 |
| C/C(=C\CP(=O)(N[C@@H](C)C(=O)OC(C)C)Oc1cccc2c1CCCC2)Cn1ccc(=O)[nH]c1=O (stereo partly specified) | < 4.00 |
| C/C(=C\CP(=O)(N[C@@H](C)C(=O)OCc1ccccc1)Oc1cccc2c1CCCC2)Cn1ccc(=O)[nH]c1=O (stereo partly specified) | < 4.00 |
| C/C(=C\CP(=O)(N[C@@H](C)C(=O)OCc1ccccc1)Oc1cccc2ccccc12)Cn1ccc(=O)[nH]c1=O (stereo partly specified) | < 4.00 |
| C/C(=C\CP(=O)(N[C@@H](C)C(=O)OC(C)C)Oc1cccc2ccccc12)Cn1cc(C)c(=O)[nH]c1=O (stereo partly specified) | < 4.00 |
| C/C(=C/CP(=O)(N[C@@H](C)C(=O)OC(C)C)Oc1cccc2c1CCCC2)Cn1ccc(=O)[nH]c1=O (stereo partly specified) | < 4.70 |
| C/C(=C\CP(=O)(N[C@@H](C)C(=O)OC(C)C)Oc1ccccc1)Cn1cc(C)c(=O)[nH]c1=O (stereo partly specified) | < 4.00 |
| Nc1ccn(C[C@@H](CO)OCP(=O)(O)O)c(=O)n1 | 5.91 |
| C/C(=C\CP(=O)(N[C@@H](C)C(=O)OC(C)C)Oc1ccccc1)Cn1ccc(=O)[nH]c1=O (stereo partly specified) | < 4.00 |
| C/C(=C\CP(=O)(N[C@@H](C)C(=O)OCc1ccccc1)Oc1ccccc1)Cn1cc(C)c(=O)[nH]c1=O (stereo partly specified) | < 4.00 |
| C/C(=C\CP(=O)(N[C@@H](C)C(=O)OC(C)C)Oc1cccc2ccccc12)Cn1ccc(=O)[nH]c1=O (stereo partly specified) | < 4.00 |

* * *

Test: Cytotoxicity against HEL cells assessed as alteration of cell morphology by microscopic analysis
Type: cell-based
Conditions: human
Entries and their MCC values follow.

| COMPOUND | MCC |
| --- | --- |
| C/C(=C\CP(=O)(N[C@@H](C)C(=O)OC(C)C)Oc1cccc2c1CCCC2)Cn1cc(C)c(=O)[nH]c1=O (some centres undefined) | > 100 µM |
| C/C(=C\CP(=O)(N[C@@H](C)C(=O)OC(C)C)Oc1ccccc1)Cn1cc(C)c(=O)[nH]c1=O (some centres undefined) | > 100 µM |
| C/C(=C/CP(=O)(N[C@@H](C)C(=O)OC(C)C)Oc1cccc2ccccc12)Cn1cc(C)c(=O)[nH]c1=O (some centres undefined) | 100 µM |
| O=c1[nH]c(=O)n([C@H]2C[C@H](O)[C@@H](CO)O2)cc1/C=C/Br [BRIVUDINE] | 250 to 300 µM |

* * *

Assay: Cytotoxicity against HEL cells assessed as alteration of cell morphology by microscopic analysis
Format: cell-based
Details: human

| MOLECULE | MCC |
| --- | --- |
| C/C(=C\CP(=O)(N[C@@H](C)C(=O)OC(C)C)Oc1cccc2ccccc12)Cn1cc(C)c(=O)[nH]c1=O (stereo partly drawn) | > 100 µM |
| C/C(=C/CP(=O)(N[C@@H](C)C(=O)OCc1ccccc1)Oc1cccc2c1CCCC2)Cn1cc(C)c(=O)[nH]c1=O (stereo partly drawn) | > 100 µM |
| C/C(=C\CP(=O)(N[C@@H](C)C(=O)OCc1ccccc1)Oc1cccc2c1CCCC2)Cn1ccc(=O)[nH]c1=O (stereo partly drawn) | > 100 µM |
| C/C(=C\CP(=O)(N[C@@H](C)C(=O)OC(C)C)Oc1cccc2c1CCCC2)Cn1ccc(=O)[nH]c1=O (stereo partly drawn) | > 100 µM |
| C/C(=C\CP(=O)(N[C@@H](C)C(=O)OCc1ccccc1)Oc1cccc2ccccc12)Cn1cc(C)c(=O)[nH]c1=O (stereo partly drawn) | > 100 µM |
| Cc1cn([C@H]2C[C@H](F)[C@@H](CO)O2)c(=O)[nH]c1=O | > 250 µM |
| C/C(=C\CP(=O)(N[C@@H](C)C(=O)OCc1ccccc1)Oc1ccccc1)Cn1ccc(=O)[nH]c1=O (stereo partly drawn) | > 100 µM |
| Nc1nc2c(ncn2COC(CO)CO)c(=O)[nH]1 | > 100 µM |
| C/C(=C\CP(=O)(N[C@@H](C)C(=O)OCc1ccccc1)Oc1cccc2c1CCCC2)Cn1cc(C)c(=O)[nH]c1=O (stereo partly drawn) | > 100 µM |
| Nc1ccn(C[C@@H](CO)OCP(=O)(O)O)c(=O)n1 | > 250 µM |
| C/C(=C\CP(=O)(N[C@@H](C)C(=O)OC(C)C)Oc1cccc2ccccc12)Cn1ccc(=O)[nH]c1=O (stereo partly drawn) | > 100 µM |
| C/C(=C/CP(=O)(N[C@@H](C)C(=O)OC(C)C)Oc1cccc2c1CCCC2)Cn1cc(C)c(=O)[nH]c1=O (stereo partly drawn) | 100 µM |
| C/C(=C\CP(=O)(N[C@@H](C)C(=O)OCc1ccccc1)Oc1cccc2ccccc12)Cn1ccc(=O)[nH]c1=O (stereo partly drawn) | > 100 µM |

* * *

Tested on: Coxsackievirus B4
Assay: Antiviral activity against Coxsackie virus B4 infected in African green monkey Vero cells assessed as inhibition of virus-induced cytopathicity
Assay type: functional, organism-based
Conditions: Enterovirus B
pEC50: −log10 of the molar value.
TEST_READOUT: pEC50

| MOLECULE | MEASUREMENT |
| --- | --- |
| C/C(=C\CP(=O)(N[C@@H](C)C(=O)OC(C)C)Oc1cccc2ccccc12)Cn1ccc(=O)[nH]c1=O (stereo partly drawn) | < 4.00 |
| C/C(=C\CP(=O)(N[C@@H](C)C(=O)OC(C)C)Oc1cccc2c1CCCC2)Cn1cc(C)c(=O)[nH]c1=O (stereo partly drawn) | < 4.00 |
| C/C(=C/CP(=O)(N[C@@H](C)C(=O)OC(C)C)Oc1cccc2c1CCCC2)Cn1ccc(=O)[nH]c1=O (stereo partly drawn) | < 4.00 |
| C/C(=C\CP(=O)(N[C@@H](C)C(=O)OCc1ccccc1)Oc1cccc2ccccc12)Cn1cc(C)c(=O)[nH]c1=O (stereo partly drawn) | < 4.00 |
| C/C(=C\CP(=O)(N[C@@H](C)C(=O)OC(C)C)Oc1cccc2ccccc12)Cn1cc(C)c(=O)[nH]c1=O (stereo partly drawn) | < 4.00 |
| C/C(=C\CP(=O)(N[C@@H](C)C(=O)OCc1ccccc1)Oc1ccccc1)Cn1cc(C)c(=O)[nH]c1=O (stereo partly drawn) | < 4.00 |
| C/C(=C\CP(=O)(N[C@@H](C)C(=O)OC(C)C)Oc1cccc2c1CCCC2)Cn1ccc(=O)[nH]c1=O (stereo partly drawn) | < 4.00 |
| C/C(=C/CP(=O)(N[C@@H](C)C(=O)OC(C)C)Oc1cccc2ccccc12)Cn1cc(C)c(=O)[nH]c1=O (stereo partly drawn) | < 4.00 |
| C/C(=C\CP(=O)(N[C@@H](C)C(=O)OC(C)C)Oc1ccccc1)Cn1cc(C)c(=O)[nH]c1=O (stereo partly drawn) | < 4.00 |
| C/C(=C\CP(=O)(N[C@@H](C)C(=O)OCc1ccccc1)Oc1cccc2ccccc12)Cn1ccc(=O)[nH]c1=O (stereo partly drawn) | < 4.00 |
| NC(=O)c1ncn([C@@H]2O[C@H](CO)[C@@H](O)[C@H]2O)n1 | < 3.60 |
| C/C(=C\CP(=O)(N[C@@H](C)C(=O)OC(C)C)Oc1ccccc1)Cn1ccc(=O)[nH]c1=O (stereo partly drawn) | < 4.00 |
| C/C(=C\CP(=O)(N[C@@H](C)C(=O)OCc1ccccc1)Oc1cccc2c1CCCC2)Cn1ccc(=O)[nH]c1=O (stereo partly drawn) | < 4.00 |
| COc1c(C)c2c(c(O)c1C/C=C(\C)CCC(=O)O)C(=O)OC2 | < 4.00 |
| C/C(=C/CP(=O)(N[C@@H](C)C(=O)OCc1ccccc1)Oc1cccc2c1CCCC2)Cn1cc(C)c(=O)[nH]c1=O (stereo partly drawn) | < 4.00 |
| C/C(=C\CP(=O)(N[C@@H](C)C(=O)OCc1ccccc1)Oc1cccc2c1CCCC2)Cn1cc(C)c(=O)[nH]c1=O (stereo partly drawn) | < 4.00 |
| C/C(=C/CP(=O)(N[C@@H](C)C(=O)OC(C)C)Oc1cccc2c1CCCC2)Cn1cc(C)c(=O)[nH]c1=O (stereo partly drawn) | 4.24 |
| C/C(=C\CP(=O)(N[C@@H](C)C(=O)OCc1ccccc1)Oc1ccccc1)Cn1ccc(=O)[nH]c1=O (stereo partly drawn) | < 4.00 |

src = ChEMBL document CHEMBL4118253
